Data credit: patent US12583839B2

assayTarget: PD-1/PD-L1 (Homo sapiens, UniProt Q9NZQ7)
Construct: 60535 (PD-1/NFAT-Reporter-Jurkat); Jurkat cells expressing PD-1
Sequence (Q9NZQ7 19-290): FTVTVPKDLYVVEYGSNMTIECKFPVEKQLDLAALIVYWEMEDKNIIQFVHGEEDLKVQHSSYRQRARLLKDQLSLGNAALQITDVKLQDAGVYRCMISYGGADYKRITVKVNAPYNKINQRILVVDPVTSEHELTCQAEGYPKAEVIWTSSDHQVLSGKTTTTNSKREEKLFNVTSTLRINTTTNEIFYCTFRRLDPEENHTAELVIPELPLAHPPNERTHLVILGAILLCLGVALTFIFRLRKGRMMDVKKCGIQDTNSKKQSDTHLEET
assayMethodText: Detection of biological activity of PD-1/PD-L1 signaling inhibition at the cellular level (NFAT luciferase reporter, PD-1/NFAT-Reporter-Jurkat cells co-cultured with TCR activator/PD-L1-CHO cells)
conditionNotes: PD-1/NFAT-Reporter-Jurkat + TCR activator/PD-L1-CHO co-culture, 6 hours; Atezolizumab as positive control
measurementName: pEC50
In plain terms, pEC50 is the concentration in mol/L turned into minus its base-10 logarithm.

Below, each entry is followed by its recorded pEC50 result.
{"molecule": "COc1cc(Cn2ncc3c(-c4cccc(-c5cc(F)c(CNC[C@@H]6CCC(=O)N6)c(OC)c5)c4Cl)cccc32)c(C#N)cc1CN(C)[C@]12CC[C@@](C(=O)O)(CC1)CC2", "endpointResult": 7.60}
{"molecule": "COc1cc(Cn2ncc3c(-c4cccc(-c5ccc(CNC[C@@H]6CCC(=O)N6)cc5)c4Cl)cccc32)c(Cl)cc1CN1CCC(C(=O)O)CC1", "endpointResult": 6.01}
{"molecule": "COc1cc(-c2cccc(-c3cccc4c3cnn4Cc3cc(OC)c(CN[C@@H](CO)C(=O)O)cc3Cl)c2Cl)ccc1CNC[C@@H]1CCC(=O)N1", "endpointResult": 7.62}
{"molecule": "CN(CCO[C@H]1CCOC1)Cc1ccc(-c2cccc(-c3cccc4c3cnn4Cc3cc(OCc4cncc(C#N)c4)c(CN[C@@H](CO)C(=O)O)cc3Cl)c2Cl)cc1", "endpointResult": 6.64}

In the following, a different molecule is considered.
Problem: Fill in: pEC50 of COc1cc(Cn2ncc3c(-c4cccc(-c5cc(F)c(CNC[C@@H]6CCC(=O)N6)c(OC)c5)c4Cl)cccc32)c(Cl)cc1CN(C)CC1CCC(C(=O)O)CC1 (some centres unmarked) is ___
Solution: 7.06

====

Each record here notes measured log10(EC50).
assayTarget: PD-1/PD-L1 (Homo sapiens, UniProt Q9NZQ7)
Construct: 60535 (PD-1/NFAT-Reporter-Jurkat); Jurkat cells expressing PD-1
assayMethodText: Detection of biological activity of PD-1/PD-L1 signaling inhibition at the cellular level (NFAT luciferase reporter, PD-1/NFAT-Reporter-Jurkat cells co-cultured with TCR activator/PD-L1-CHO cells)
conditionNotes: PD-1/NFAT-Reporter-Jurkat + TCR activator/PD-L1-CHO co-culture, 6 hours; Atezolizumab as positive control
Lab note - EC50 converted to log10 from values in nM.

Record excerpt, results attached:
{"compound": "COc1cc(Cn2ncc3c(-c4cccc(-c5ccc(CNC[C@@H]6CCC(=O)N6)cc5)c4Cl)cccc32)c(Cl)cc1CNC[C@H](O)CC(=O)O [Compound 31]", "log10(EC50)": 1.91}
{"compound": "COc1cc(Cn2ncc3c(-c4cccc(-c5ccc(CN6CC[C@@H](O)C6)cc5)c4Cl)cccc32)c(Cl)cc1CNC[C@H]1CC[C@H](C(=O)O)CC1 [Compound 63]", "log10(EC50)": 2.98}
{"compound": "COc1cc(Cn2ncc3c(-c4cccc(-c5cc(F)c(CNC[C@@H]6CCC(=O)N6)c(OC)c5)c4Cl)cccc32)c(C(F)(F)F)cc1CN(C)[C@H]1C[C@H](C(=O)O)C1 [Compound 149]", "log10(EC50)": 1.45}

Problem: Can you look up the measured log10(EC50) of Cc1c(-c2ccc(CNC[C@@H]3CCC(=O)N3)cc2)cccc1-c1cccc2c1cnn2Cc1cc(OCc2cncc(C#N)c2)c(CN[C@@H](CO)C(=O)O)cc1Cl [Compound 2] for me?
Solution: 1.93

Problem: Would you kindly share the measured log10(EC50) for COc1cc(Cn2ncc3c(-c4cccc(-c5ccc(CNC[C@@H]6CCC(=O)N6)c(OC)n5)c4Cl)cccc32)c(Cl)cc1CN(C)CC1CCC(C(=O)O)CC1 (stereo partly shown) [Compound 91] ?
Solution: 1.96

Problem: Given the compound COc1cc(-c2cccc(-c3cccc4c3cnn4Cc3cc(OC[C@@H]4CCC(=O)N4)c(CN(C)C[C@H]4CC[C@H](C(=O)O)CC4)cc3Cl)c2Cl)ccc1CNC[C@@H]1CCC(=O)N1 [Compound 134] , what is its reported log10(EC50)?
Solution: 1.83

Problem: Name the reported log10(EC50) value associated with the compound COc1cc(-c2cccc(-c3cccc4c3cnn4Cc3cc(OC)c(CN(C)C4CCC(C(=O)O)CC4)cc3Cl)c2Cl)ccc1CNC[C@@H]1CCCC(=O)N1 (stereo partly shown) [Compound 153]
Solution: 1.97

Problem: Item under review: COc1cc(Cn2ncc3c(-c4cccc(-c5ccc(CNC[C@@H]6CCC(=O)N6)cc5)c4Cl)cccc32)c(Cl)cc1CNCc1nnn[nH]1 [Compound 85] . Reported log10(EC50)?
Solution: 2.67

Problem: Field request: log10(EC50) | item: COc1cc(-c2cccc(-c3cccc4c3cnn4Cc3cc(OC)c(CN4CC[C@H](CC(=O)O)C4)cc3Cl)c2Cl)ccc1CNC[C@@H]1CCC(=O)N1 [Compound 99]
Solution: 1.79

Problem: Quick one: log10(EC50) of COc1cc(Cn2ncc3c(-c4cccc(-c5ccc(CNC[C@@H]6CCC(=O)N6)cc5)c4Cl)cccc32)c(Cl)cc1CN1CCC[C@H]1C(=O)O [Compound 43] ?
Solution: 2.73

Problem: Can you share its log10(EC50)? I mean this compound: N#Cc1cncc(COc2cc(Cn3ncc4c(-c5cccc(-c6ccc(CNC[C@@H]7CCC(=O)N7)cc6)c5Cl)cccc43)c(Cl)cc2CNCC(=O)O)c1 [Compound 22]
Solution: 1.95

Problem: Could you tell me which log10(EC50) is on file for COc1cc(-c2cccc(-c3cccc4c3cnn4Cc3cc(OC)c(CN(C4CCC(C(=O)O)CC4)C4CC4)cc3Cl)c2Cl)ccc1CNC[C@@H]1CCC(=O)N1 (stereo partly shown) [Compound 122] ?
Solution: 2.51

Problem: Requested read-out: log10(EC50). Entry: COc1cc(Cn2ncc3c(-c4cccc(-c5ccc(CNC[C@@H]6CCC(=O)N6)cc5)c4Cl)cccc32)c(N)cc1CN[C@@H](CO)C(=O)O [Compound 89]
Solution: 3.05

Problem: Look at this compound and give its reported log10(EC50). COc1cc(-c2cccc(-c3cccc4c3cnn4Cc3nc(OC)c(CN(C)C45CCC(C(=O)O)(CC4)CC5)cc3Cl)c2Cl)cc(F)c1CNC[C@@H]1CCC(=O)N1 [Compound 135]
Solution: 1.40

Problem: Tell me the measured log10(EC50) of COc1cc(-c2cccc(-c3cccc4c3cnn4Cc3nc(OC)c(CN(C)[C@H]4CC[C@H](C(=O)O)CC4)cc3Cl)c2Cl)cc(F)c1CNC[C@@H]1CCC(=O)N1 [Compound 163] , please.
Solution: 1.41
